B1: Caulobacter ParB omega fusion; a variant is named by its letters at X, in order, B8GW30 (parent)
chain: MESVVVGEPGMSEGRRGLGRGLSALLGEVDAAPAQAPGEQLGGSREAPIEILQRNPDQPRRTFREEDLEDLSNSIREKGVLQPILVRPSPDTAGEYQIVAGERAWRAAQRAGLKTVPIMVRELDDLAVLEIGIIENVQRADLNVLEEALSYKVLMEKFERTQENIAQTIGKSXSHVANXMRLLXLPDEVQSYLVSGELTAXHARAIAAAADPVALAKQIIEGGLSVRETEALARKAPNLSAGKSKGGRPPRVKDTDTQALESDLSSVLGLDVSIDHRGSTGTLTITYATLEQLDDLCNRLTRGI

variants of: B1; assay: one-hybrid fitness for binding parS DNA (scaled: cognate 1, non-cognate 0); higher = stronger binding; conditions: with parS DNA site
Whole data set: some 81,000 sequences, median “one-hybrid fitness for binding parS DNA” near -0.17, cut for the highest 2% near 0.51. The full list was thinned out, with the highest values kept by preference.
# one-hybrid fitness for binding parS DNA annotations

The cases that follow already have their one-hybrid fitness for binding parS DNA on record.
{"mutant": "REST", "one-hybrid fitness for binding parS DNA": "≤ 0.2"}
{"mutant": "RTCK", "one-hybrid fitness for binding parS DNA": "≤ 0.2"}
{"mutant": "TTPY", "one-hybrid fitness for binding parS DNA": "≤ 0.2"}
{"mutant": "IAKG", "one-hybrid fitness for binding parS DNA": "≤ 0.2"}
{"mutant": "SREP", "one-hybrid fitness for binding parS DNA": "≤ 0.2"}

Inquiry: What does the data say about its one-hybrid fitness for binding parS DNA? Entry: GFIG
Reply text: ≤ 0.2

Inquiry: Same question, PHRR this time
Reply text: ≤ 0.2

Inquiry: Same for RCKG
Reply text: 0.89

Inquiry: For RSKG then?
Reply text: 0.944

Inquiry: Let us now turn to REVI
Reply text: ≤ 0.2

Inquiry: Same read-out for RWAF ?
Reply text: ≤ 0.2

Inquiry: For RNEC then?
Reply text: 0.613

Inquiry: Query GHMG next
Reply text: ≤ 0.2

Inquiry: RWAM , same question.
Reply text: ≤ 0.2

Inquiry: What do you get for NRYA ?
Reply text: ≤ 0.2

Inquiry: Also need YQHR , thanks.
Reply text: ≤ 0.2

Inquiry: What do we get for QQNS ?
Reply text: ≤ 0.2

Inquiry: # repeat for RWFG
Reply text: 0.615

Inquiry: What do you get for RNED ?
Reply text: ≤ 0.2

Inquiry: Again, but for SRTC
Reply text: ≤ 0.2

Inquiry: Next: LATK
Reply text: ≤ 0.2

Source: a collection of fitness landscapes (doi:10.1016/j.celrep.2020.107928)
